System: hTMEFF1-ECD recombinant deletion mutants
Assay: Binding domain determination with hTMEFF1-ECD deletion mutants (Octet)
Set-up: species or system human; key: FS1—follistatin domain 1; FS2—follistatin domain 2
Conditions: full length TMEFF1 ECD vs ΔFS1, ΔFS2, ΔFS1&FS2

molecule	Binding region (epitope domain binding)
29C4: human anti-TMEFF1 IgG1 antibody; VH SEQ ID NO: 118, VL SEQ ID NO: 122 (antibody, V domains shown) VH: QVQLVESGGGVVQPGRSLRLSCAASGFTFSNYGMHWVRQAPGKGLEWVAVIWYDGGPKFYADSVKGRFTISRDNSKNTLYLQMNSLRAEDTAVYYCARSYCGGDCYPFDYWGQGDLVTVSS VL: DIQMTQSPSSLSASVGDRVTITCRASQGISNYLAWYQQKPGKVPKLLIYAASTLQSGVPSRFSGSGSGTDFTLTISSLQPEDVATYYCQKYYSAPWTFGQGTKVEIK	FS1
